metric-name: melting point

1. COCCN1C(=O)N(C(C)(C)C)CC1=NS(=O)(=O)c1cccc(Br)c1 [Compound 11e]; 104 to 105 °C
2. O=C1N(CC2CC2)C(=NS(=O)(=O)c2ccc(Br)cc2)CN1C12CC3CC(CC(C3)C1)C2 [Compound 12d]; 176 to 176.5 °C
3. COCCN1C(=O)N(C(C)(C)C)CC1=NS(=O)(=O)c1ccccc1 [Compound 11b]; 104.5 to 105 °C
4. COCCN1C(=O)N(C(C)(C)C)CC1=NS(=O)(=O)c1ccc2ccccc2c1 [Compound 11h]; 129.5 to 130.5 °C
5. CC(C)(C)N1CC(=NS(=O)(=O)c2ccc(Br)cc2)N(CC2CC2)C1=O [Compound 10d]; 98 to 98.5 °C

// data source = paper PMC9738591
